Values were extracted from PubChem BioAssay AID1208.

Tested on: rat chronic carcinogenicity bioassay, TD50
method: DSSTox (CPDBAS) Carcinogenic Potency Database Summary Rat Bioassay Results
condition_summary: TD50_Rat_Note: only experiment is NCI/NTP bioassay inadequate; TargetSites_Rat_Female: NTP bioassay inadequate
observation_type: outcome

{"compound": "Nc1ccc2cc3ccc(N)cc3nc2c1", "outcome": "ntp bioassay inadequate"}
{"compound": "CNC[C@H](O)c1ccc(O)c(O)c1", "outcome": "ntp bioassay inadequate"}
{"compound": "C=CCCl", "outcome": "ntp bioassay inadequate"}
{"compound": "CC[C@H]1CN2CCc3cc(OC)c(OC)cc3[C@@H]2C[C@@H]1C[C@H]1NCCc2cc(OC)c(OC)cc21", "outcome": "ntp bioassay inadequate"}
{"compound": "C=CC1CC=CCC1 (stereo unspecified)", "outcome": "ntp bioassay inadequate"}

Okay, next one:
For reference, reported outcome for CCN(CC)C(=O)/C(Cl)=C(\C)OP(=O)(OC)OC stands at ntp bioassay inadequate

====

System: rat chronic carcinogenicity bioassay, TD50
method: DSSTox (CPDBAS) Carcinogenic Potency Database Summary Rat Bioassay Results
condition_summary: TD50_Rat_Note: TD50 is harmonic mean of more than one positive test; TargetSites_Rat_Female: esophagus; oral cavity; stronger effect = lower value
observation_type: Potency

The compound listed as O=NN1CCSCC1 has a reported Potency of 5.39 mg/kg/day

====

Tested on: rat chronic carcinogenicity bioassay, TD50
method: DSSTox (CPDBAS) Carcinogenic Potency Database Summary Rat Bioassay Results
condition_summary: TD50_Rat_Note: harmonic mean of TD50 includes a value for upper 99% confidence limit from study with 100% tumor incidence but no lifeta; stronger effect = lower value
Examples of compounds with documented Potency follow.

# compound CCCN=[N+]([O-])CCC ; its Potency = 0.000241 mg/kg/day

Lab note: CCCCCCCCCCCCCCN(C)N=O gave Potency of 1.65 mg/kg/day

====

System: rat chronic carcinogenicity bioassay, TD50
method: DSSTox (CPDBAS) Carcinogenic Potency Database Summary Rat Bioassay Results
condition_summary: TD50_Rat_Note: TD50 is harmonic mean of more than one positive test; greater than ten-fold variation among TD50 values for positive res; TargetSites_Rat_Female: ear Zymbals gland; mammary gland; nasal cavity; nervous system; oral cavity; small intestine; stomach; stronger effect = lower value
observation_type: Potency

Please fill in: Potency reported for C=CC#N = 16.9 mg/kg/day

====

Tested on: rat chronic carcinogenicity bioassay, TD50
method: DSSTox (CPDBAS) Carcinogenic Potency Database Summary Rat Bioassay Results
condition_summary: TD50_Rat_Note: TD50 is harmonic mean of more than one positive test; TargetSites_Rat_Female: mammary gland; stomach; uterus; stronger effect = lower value
observation_type: Potency

Noted Potency for C=CCN(N=O)C(N)=O , tested on rat chronic carcinogenicity bioassay, TD50: 0.341 mg/kg/day

====

Test system: rat chronic carcinogenicity bioassay, TD50
method: DSSTox (CPDBAS) Carcinogenic Potency Database Summary Rat Bioassay Results
condition_summary: TD50_Rat_Note: TD50 is harmonic mean of more than one positive test; TargetSites_Rat_Female: ear Zymbals gland; mammary gland; nervous system; stronger effect = lower value
observation_type: Potency

Potency in this record for O=C(O)CCCc1ccc(N(CCCl)CCCl)cc1 : 0.896 mg/kg/day

====

Tested on: rat chronic carcinogenicity bioassay, TD50
method: DSSTox (CPDBAS) Carcinogenic Potency Database Summary Rat Bioassay Results
condition_summary: TD50_Rat_Note: TD50 is harmonic mean of more than one positive test; TargetSites_Rat_Female: oral cavity; stronger effect = lower value
observation_type: Potency

Record [K+] , field Potency: 440 mg/kg/day

====

System: rat chronic carcinogenicity bioassay, TD50
method: DSSTox (CPDBAS) Carcinogenic Potency Database Summary Rat Bioassay Results
condition_summary: TD50_Rat_Note: TD50 is harmonic mean of more than one positive test; greater than ten-fold variation among TD50 values for positive res; TargetSites_Rat_Female: hematopoietic system; mammary gland; stronger effect = lower value
observation_type: Potency

The recorded Potency for entry NC(=O)N(CCO)N=O equals 0.244 mg/kg/day

====

Tested on: rat chronic carcinogenicity bioassay, TD50
method: DSSTox (CPDBAS) Carcinogenic Potency Database Summary Rat Bioassay Results
condition_summary: TD50_Rat_Note: TD50 is harmonic mean of more than one positive test; TargetSites_Rat_Female: lung; stronger effect = lower value
Description: The Carcinogenic Potency Database (CPDB) is a unique and widely used international resource of the results of over 6500 chronic, long-term animal cancer tests on over 1500 chemical substances. The CPDB provides easy access to the bioassay literature, with qualitative and quantitative analyses of both positive and negative experiments that have been published over the past 50 years in the general literature and by the National Cancer Institute/National Toxicology Program. […]
observation_type: Potency

{"smiles_data": "O=S(=O)([O-])[O-].[Cd+2]", "Potency": "0.0217 mg/kg/day"}

Attention now turns to another entry.
For reference, reported Potency for CC(C)CON=O stands at 54.1 mg/kg/day

====

Test system: rat chronic carcinogenicity bioassay, TD50
method: DSSTox (CPDBAS) Carcinogenic Potency Database Summary Rat Bioassay Results
condition_summary: TD50_Rat_Note: TD50 is harmonic mean of more than one positive test; harmonic mean of TD50 includes a value for upper 99% confidence li; TargetSites_Rat_Female: large intestine; lung; mammary gland; nervous system; skin; thyroid gland; uterus; stronger effect = lower value
observation_type: Potency

Query CCN(N=O)C(=O)NCC(C)=O yields Potency of 0.181 mg/kg/day

====

System: rat chronic carcinogenicity bioassay, TD50
method: DSSTox (CPDBAS) Carcinogenic Potency Database Summary Rat Bioassay Results
condition_summary: TD50_Rat_Note: TD50 is harmonic mean of more than one positive test; TargetSites_Rat_Female: liver; TargetSites_Rat_BothSexes: hematopoietic system; stronger effect = lower value
observation_type: Potency

{"smiles_data": "O=NO", "observation_type": "Potency", "experimental_result": "167 mg/kg/day"}

Now look at this one.
Measured on rat chronic carcinogenicity bioassay, TD50, CCN(Cc1cccc(S(=O)(=O)O)c1)c1ccc(C(=C2C=CC(=[N+](CC)Cc3cccc(S(=O)(=O)[O-])c3)C=C2)c2ccccc2)cc1 has a documented Potency of 6060 mg/kg/day

====

Tested on: rat chronic carcinogenicity bioassay, TD50
method: DSSTox (CPDBAS) Carcinogenic Potency Database Summary Rat Bioassay Results
condition_summary: TD50_Rat_Note: TD50 is harmonic mean of more than one positive test; TargetSites_Rat_Female: nasal cavity; stronger effect = lower value
observation_type: Potency

Examples from the recorded data:
{"molecule": "CC=O", "experimental_result": "153 mg/kg/day"}
{"molecule": "ClC/C=C/CCl", "experimental_result": "0.297 mg/kg/day"}
{"molecule": "c1ccc2ccccc2c1", "experimental_result": "22.1 mg/kg/day"}

The measured Potency associated with c1ccc(OCC2CO2)cc1 (configuration not stated) reads 44 mg/kg/day

Input COc1ccc(C(=O)Nc2c(Cl)cncc2Cl)cc1OC1CCCC1 . Output Potency: 1.54 mg/kg/day

Reported Potency ( C=CCN(CC=C)N=O ) = 33.9 mg/kg/day

Item: CCN(C#N)N=O | Potency: 3.68 mg/kg/day

====

System: rat chronic carcinogenicity bioassay, TD50
method: DSSTox (CPDBAS) Carcinogenic Potency Database Summary Rat Bioassay Results
condition_summary: TD50_Rat_Note: no positive results; TargetSites_Rat_Female: no positive results
Active and inactive are the calls of the source.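 The calls were made as follows: active = at least one rat sex group has a carcinogenic potency value and tumor site recorded; inconclusive = only rat studies were judged inadequate by the national testing program; inactive = no potency or tumor site, with negative rat experiments.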

{"compound": "CC(=O)OC(OC(C)=O)c1ccc([N+](=O)[O-])o1", "outcome": "inactive"}
{"compound": "CC(=O)Nc1cccc2c1Cc1ccccc1-2", "outcome": "inactive"}
{"compound": "C1OC1C1CO1 (stereo not given)", "outcome": "inactive"}

====

Test system: rat chronic carcinogenicity bioassay, TD50
method: DSSTox (CPDBAS) Carcinogenic Potency Database Summary Rat Bioassay Results
condition_summary: TD50_Rat_Note: TD50 is harmonic mean of more than one positive test; TargetSites_Rat_Female: esophagus; mammary gland; oral cavity; thyroid gland; stronger effect = lower value
observation_type: Potency

Sample OCC(CO)(CBr)CBr ; Potency observed: 111 mg/kg/day

====

Test system: rat chronic carcinogenicity bioassay, TD50
method: DSSTox (CPDBAS) Carcinogenic Potency Database Summary Rat Bioassay Results
condition_summary: TD50_Rat_Note: TD50 is harmonic mean of more than one positive test; TargetSites_Rat_Female: ear Zymbals gland; hematopoietic system; kidney; large intestine; liver; mammary gland; small intestine; stronger effect = lower value
observation_type: Potency

Value of measured Potency for the entry O=CNNc1nc(-c2ccc([N+](=O)[O-])o2)cs1 : 5.06 mg/kg/day

====

Reported Potency values are given for each entry in this list.
System: rat chronic carcinogenicity bioassay, TD50
method: DSSTox (CPDBAS) Carcinogenic Potency Database Summary Rat Bioassay Results
condition_summary: TD50_Rat_Note: TD50 is harmonic mean of more than one positive test; harmonic mean of TD50 includes a value for upper 99% confidence li; TargetSites_Rat_Female: urinary bladder; stronger effect = lower value
Excerpt: The Carcinogenic Potency Database (CPDB) is a unique and widely used international resource of the results of over 6500 chronic, long-term animal cancer tests on over 1500 chemical substances. The CPDB provides easy access to the bioassay literature, with qualitative and quantitative analyses of both positive and negative experiments that have been published over the past 50 years in the general literature and by the National Cancer Institute/National Toxicology Program. […]

Reference set (2 entries):
{"smiles_data": "CCCCCCCCCCCCN(C)N=O", "study_target": "rat chronic carcinogenicity bioassay, TD50", "Potency": "0.537 mg/kg/day"}
{"smiles_data": "CCCCN(CCCCO)N=O", "study_target": "rat chronic carcinogenicity bioassay, TD50", "Potency": "0.457 mg/kg/day"}

Documented Potency of O=CNc1nc(-c2ccc([N+](=O)[O-])o2)cs1 : 4.25 mg/kg/day
